# target: hCOX-1 (Homo sapiens, UniProt P23219)
# Construct: using arachidonic acid as substrate for hCOX-1 from human platelet microsomes; from tissue; host or cells: microsomes of human platelets isolated from buffy coats
# Sequence (P23219 24-599): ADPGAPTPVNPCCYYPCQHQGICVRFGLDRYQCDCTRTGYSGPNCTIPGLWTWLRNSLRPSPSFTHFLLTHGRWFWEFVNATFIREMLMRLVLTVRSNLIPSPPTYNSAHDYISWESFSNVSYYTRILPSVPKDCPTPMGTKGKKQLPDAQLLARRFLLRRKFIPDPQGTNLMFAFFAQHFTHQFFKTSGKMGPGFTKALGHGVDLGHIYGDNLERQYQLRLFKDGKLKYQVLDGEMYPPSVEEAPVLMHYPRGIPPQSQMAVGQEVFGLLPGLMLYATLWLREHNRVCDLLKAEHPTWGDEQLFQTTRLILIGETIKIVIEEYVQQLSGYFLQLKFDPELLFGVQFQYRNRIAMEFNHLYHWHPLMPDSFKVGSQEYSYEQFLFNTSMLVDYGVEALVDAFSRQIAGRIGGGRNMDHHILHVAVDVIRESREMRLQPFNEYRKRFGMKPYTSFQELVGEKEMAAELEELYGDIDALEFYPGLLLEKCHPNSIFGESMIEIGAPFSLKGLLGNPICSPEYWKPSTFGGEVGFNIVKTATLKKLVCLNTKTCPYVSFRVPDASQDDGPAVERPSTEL
# measurement.description: hCOX-1 activity, TMPD oxidation, human platelet microsomes, arachidonic acid substrate
# Type: biochemical
# setup.conditions: Table 2; mean ± S.E.M., n = 3; control assays; read-out: IC50 hCOX-1
# Method: Human platelets were isolated by centrifugation from buffy coats obtained from the Centro de Transfusion de Galicia (Santiago de Compostela, Spain) and prepared as described. The upper layer obtained in this centrifugation, containing platelet rich plasma, was gently removed and centrifuged at 850 g for 20 min at 4 °C in a centrifuge (J2-MI, Beckman Instruments, Inc., Palo Alto, California, USA). […]
property.name: pIC50
The value called pIC50 is obtained by taking minus log10 of the concentration in mol/L.

Report pIC50, nothing else, for this compound: COc1ccc(-c2nc(C(=O)N3CCN(C)CC3)sc2-c2ccc(OC)cc2)cc1 [FR122047]
7.03
